# Target Entity: vanilloid receptor 1 (VR1/TRPV1) of the rat species (Rattus norvegicus)
# Construct: The spinal column is removed from beheaded rats; from tissue; host or cells: primary cells from rat dorsal root ganglia (DRGs)
# Sequence (O35433 whole entry): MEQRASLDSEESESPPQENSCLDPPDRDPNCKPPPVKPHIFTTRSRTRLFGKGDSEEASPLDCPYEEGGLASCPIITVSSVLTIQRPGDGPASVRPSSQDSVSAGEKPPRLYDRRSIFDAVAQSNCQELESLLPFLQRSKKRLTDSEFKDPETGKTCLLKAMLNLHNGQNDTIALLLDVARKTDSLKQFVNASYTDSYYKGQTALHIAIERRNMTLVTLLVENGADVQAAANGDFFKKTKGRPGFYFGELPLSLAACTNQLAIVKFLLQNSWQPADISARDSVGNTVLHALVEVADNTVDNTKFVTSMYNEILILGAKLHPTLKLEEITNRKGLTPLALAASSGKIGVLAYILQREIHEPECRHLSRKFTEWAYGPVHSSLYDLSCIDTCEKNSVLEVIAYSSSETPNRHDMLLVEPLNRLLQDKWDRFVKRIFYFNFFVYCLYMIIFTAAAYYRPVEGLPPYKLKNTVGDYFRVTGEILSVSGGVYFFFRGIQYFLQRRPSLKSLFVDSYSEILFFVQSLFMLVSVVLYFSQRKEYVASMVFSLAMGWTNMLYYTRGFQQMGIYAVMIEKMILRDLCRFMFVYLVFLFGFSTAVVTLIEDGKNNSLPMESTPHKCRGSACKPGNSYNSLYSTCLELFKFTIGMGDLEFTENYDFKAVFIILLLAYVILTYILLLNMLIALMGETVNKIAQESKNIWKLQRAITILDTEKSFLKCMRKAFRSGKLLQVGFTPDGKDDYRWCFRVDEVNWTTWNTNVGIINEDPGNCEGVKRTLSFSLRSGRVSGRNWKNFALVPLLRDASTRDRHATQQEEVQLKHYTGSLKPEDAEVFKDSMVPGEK
# Method Notes: Functional study on vanilloid receptor 1, FLIPR Ca2+ assay in rat dorsal root ganglia cells
# Format: cell-based
# Measurement Context: test compound 10 μM; Ca2+ signal relative to 10 μM capsaicin (CP); read-out: VR1 (rat) (% stimulation compared to 10 μM CP)
Structures can show the parent of a compound that is named as a salt.
Experimental Readout: activation at 10 µM (%)

A selection of reference data follows.
| Molecule | Target Entity | activation at 10 µM, % |
| --- | --- | --- |
| O=C1N=C(N2CCOCC2)SC1=Cc1ccccn1 | vanilloid receptor 1 (VR1/TRPV1) of the rat species (Rattus norvegicus) | 2.22 |
| O=C1N=C(N2CCSCC2)SC1=CC(Cl)=Cc1ccccc1 | vanilloid receptor 1 (VR1/TRPV1) of the rat species (Rattus norvegicus) | 54.9 |
| O=C1N=C(N2CCOCC2)SC1=Cc1ccc(Oc2ccccc2)cc1 | vanilloid receptor 1 (VR1/TRPV1) of the rat species (Rattus norvegicus) | 120 |
| O=C1N=C(N2CCOCC2)SC1=Cc1cccc(Oc2ccccc2)c1 | vanilloid receptor 1 (VR1/TRPV1) of the rat species (Rattus norvegicus) | 144 |
| Cc1ccc(C=C2SC(N3CCN(c4ncccc4Cl)CC3)=NC2=O)cc1 | vanilloid receptor 1 (VR1/TRPV1) of the rat species (Rattus norvegicus) | 0.92 |

A = CC1CN(C(=O)c2cccc(C=C3SC(N4CCSCC4)=NC3=O)c2)CCN1c1ncccc1Cl (stereo not drawn)
B = Cc1ccc(N2CCN(C3=NC(=O)C(=Cc4ccc(C(C)(C)C)cc4)S3)CC2)nn1
Q: A or B : whose activation at 10 µM is greater? Give the label of your selection.
Ans: A

a = CCN(CC)C1=NC(=O)C(=Cc2cccc(C(F)(F)F)c2)S1
b = Cc1ccc(C=C2SC(N3CCSCC3)=NC2=O)cc1 [Example 14, hydrobromide]
Q: Of a and b , which carries the smaller reported activation at 10 µM figure? Give the label of your selection.
Ans: a
(a: 13.7%, b: 108%)

###

# Target Entity: VR1 (human) (Homo sapiens)
# Construct: expressed in transfected cells; host or cells: CHO K1 cells (ECACC), stably transfected
# Sequence (Q8NER1 whole entry): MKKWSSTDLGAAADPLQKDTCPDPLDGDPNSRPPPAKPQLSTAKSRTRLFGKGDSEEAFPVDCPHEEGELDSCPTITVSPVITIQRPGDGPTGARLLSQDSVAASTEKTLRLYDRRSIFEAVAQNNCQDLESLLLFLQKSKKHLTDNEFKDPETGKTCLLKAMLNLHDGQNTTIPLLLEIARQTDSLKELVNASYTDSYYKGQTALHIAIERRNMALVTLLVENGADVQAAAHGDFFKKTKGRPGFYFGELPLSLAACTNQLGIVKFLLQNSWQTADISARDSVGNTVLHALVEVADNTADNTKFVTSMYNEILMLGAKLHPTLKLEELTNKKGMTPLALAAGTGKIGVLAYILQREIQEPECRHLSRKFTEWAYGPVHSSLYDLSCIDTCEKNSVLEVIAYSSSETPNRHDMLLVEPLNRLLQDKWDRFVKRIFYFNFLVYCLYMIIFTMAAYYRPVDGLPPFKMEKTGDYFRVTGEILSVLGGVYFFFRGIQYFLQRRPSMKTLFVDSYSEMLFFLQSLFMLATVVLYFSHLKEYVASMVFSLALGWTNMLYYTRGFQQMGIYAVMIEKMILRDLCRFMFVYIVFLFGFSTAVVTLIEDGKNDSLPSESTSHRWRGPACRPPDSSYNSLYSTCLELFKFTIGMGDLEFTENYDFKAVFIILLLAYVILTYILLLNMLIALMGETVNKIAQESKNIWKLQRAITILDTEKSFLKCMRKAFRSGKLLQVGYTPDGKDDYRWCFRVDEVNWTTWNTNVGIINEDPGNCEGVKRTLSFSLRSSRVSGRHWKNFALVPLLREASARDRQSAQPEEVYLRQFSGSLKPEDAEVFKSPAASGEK
# Method Notes: Functional study on vanilloid receptor (VR1), FLIPR Ca2+ assay in CHO K1 cells stably transfected with the VR1 gene
# Type: cell-based
# Measurement Context: CHO-K1, test compound 10 μM; Ca2+ signal relative to 10 μM capsaicin (CP); read-out: VR1 (human) (% stimulation compared to 10 μM CP)
Counter-ions that a name gives are not always drawn.
Experimental Readout: activation at 10 µM (%)

A selection of reference data follows.
| Compound | U | activation at 10 µM |
| --- | --- | --- |
| O=C1N=C(N2CCSCC2)SC1=Cc1cccc(C(=O)N2CCN(c3ncccc3Cl)CC2)c1 | % | 61.4 |
| Cc1ccc(C=C2SC(N3CCCC3)=NC2=O)cc1 | % | 3.64 |
| O=C1N=C(N2CCOCC2)SC1=Cc1ccc(Br)cc1 | % | 29.2 |
| O=C1N=C(N2CCSCC2)SC1=Cc1cccc(C(F)(F)F)c1 [Example 195, hydrobromide] | % | 80.3 |
| CC(C)(C)c1ccc(C=C2SC(N3CCOCC3)=NC2=O)cc1 | % | 48 |

I = O=C1N=C(N2CCSCC2)SC1=Cc1cccc(C(=O)N2CCN(c3ncc(C(F)(F)F)cc3Cl)CC2)c1
II = Br.Cc1ccc(C=C2SC(N3CCOCC3)=NC2=O)cc1 [Example 176, hydrobromide]
Q: Of I and II , which carries the smaller reported activation at 10 µM figure? Give the label of your selection.
Ans: II
(II: 14.5%, I: 90.3%)
